Test system: UACC-257 melanoma
Assay: NCI tumour cell line growth inhibition, 48 h; in the data active = GI50 below about 0.43 µM; inactive = the rest
Classes used: active, inactive

>>> group_label("O=c1c2c(=NCCN3CCCC3)cc3c(=O)n(CCCN4CCOCC4)c(=O)c4c(-c5ccc(CN6CCCC6)cc5)cc(c(O)n1CCCN1CCOCC1)c2c4-3")
"active"
>>> group_label("CCN(CCCN(C)C)Cc1cc(I)cc(C)c1O")
"inactive"
>>> group_label("CCOC(=O)c1ccc(NC(=O)Nc2nncs2)cc1")
"inactive"
>>> group_label("COc1ccc(/C=C/C(=O)c2cc(OC)c(OC)c(OC)c2)cc1OCC(=O)Nc1nc2ccc(OC(F)(F)F)cc2s1")
"inactive"
>>> group_label("CS(=O)(=O)Nc1cncc(-c2ccc3ncnc(Nc4ccc(F)c(Cl)c4)c3c2)c1")
"inactive"
